System: VDR:RXRa (NR concentration 270 nM, RXRa partner concentration 90 nM)
experiment: PBM binding z-score (relative to random genomic background probes); higher = stronger binding; sequences stand for … in GC…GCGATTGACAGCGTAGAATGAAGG
assay_readout: PBM binding z-score
Give bare numbers.

GCAGACAGATGAAACGCAGGTAACTCAGGGTGGC = -0.643

State the recorded PBM binding z-score for every item in the following list.
1. ATCGAAAGGTCGTGAGGAGAGTATACAGAAAGGC
2. CCTAGTTCGTCAAGGTCACACACGCTATAGGTAC
3. TCTAGCAGGCCAGATGGTCACTCAAGAGGTACGG

Result string:
1: 3.11; 2: 6.46; 3: -0.443

State the recorded PBM binding z-score for every item in the following list.
1. CGAACTCGGTCAGAACAGGACAGTGAAGGATGAT
2. CTACCAAGGTGAACAAGTTCGTTGATTACTATTC
3. ATATGTAGGTTAAGGGTCATTCAGGTTGGTTCGC
4. TTACCTAGGTGAAGGTCGTTGATCCCTCTGTAGA
5. CAAACTAGGTCACCGGAAGGCCAAAGTCCGCATG
6. AGAACGAGGGCACGCTGATTTGATAGCAGAGTAG
7. AGCCAAAGTTCACTAGGTAACGTAAGATTCAGCT

Result string:
-0.191
6.15
5.83
1.06
3.23
0.858
3.41

Source of measurements: the supplement of paper PMC6555819
